Assay: Plasma pharmacokinetics after single and multiple doses
Type: in vivo, Japanese patients
Conditions: human, plasma, oral
READOUT: half-life

Task: Would you mind telling me what half-life value was observed for "CCc1nc(C(N)=O)c(Nc2ccc(N3CCC(N4CCN(C)CC4)CC3)c(OC)c2)nc1NC1CCOCC1" ?
Output: 84 to 126 h
